# maps each entry to its IC50
# System: SK-MM-2;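 also: growth inhibition of human SK-MM-2 cells, read out with a cell viability assay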
# Protocol: cells
# Type: functional, cell-based
# Assay conditions: Homo sapiens
# Description: SANGER: Inhibition of human SK-MM-2 cell growth in a cell viability assay.

See these solved cases before continuing.
Compound: COc1cc(C)c(Sc2cnc(NC(=O)c3ccc(CNC(C)C(C)(C)C)cc3)s2)cc1C(=O)N1CCN(C(C)=O)CC1 (stereo not given)
IC50: > 10.2 µM
--
Compound: CCNc1cc(N[C@H]2CC[C@@H](O)CC2)nc(Nc2ccc3c(ccn3Cc3ccccc3)c2)n1
IC50: > 5.12 µM
--
Compound: C/C(O)=C(\C#N)C(=O)Nc1cc(Br)ccc1Br
IC50: > 16 µM
--
Compound: O=c1[nH]c2ccccc2n1C1CCN(Cc2ccc(-c3nc4cc5[nH]cnc5cc4nc3-c3ccccc3)cc2)CC1
IC50: > 2.56 µM

We now examine a further compound.
Could you please provide reported IC50 for Cc1n[nH]c2ccc(-c3cncc(OC[C@@H](N)Cc4c[nH]c5ccccc45)c3)cc12 ? Thanks!
0.623 µM

// data source = ChEMBL document CHEMBL1201861
